# Experiment Notes: Cytotoxicity test of drug (CCK-8 kit)
# Format: cell-based
# Experimental Parameters: African green monkey, Vero E6 cells

Structure Smiles String	CC50 at 48 h (µM)
C=C(C)[C@@H]1CCC(C)=C[C@H]1c1c(O)cc(CCCCC)cc1O	4.1

// data source = patent US20230263811A1
